biological target: T1, huNav1.7α + β1-β2-β3 (human Nav1.7α co-expressed with human Navβ1, Navβ2 and Navβ3 on cells) (human); test: binding FACS, CHO FlpIn cells
T1 construct: also called huNav1.7-beta1-beta2-beta3; CHO FlpIn huNav1.7α + β1-β2-β3
measurementLabel: pEC50
API: returns pEC50 as number; meaning -log10 of concentration in mol/L.

binder | pEC50
F010301848 (VHH, also called F0103387G04(L11V, A12V, K33R, R39Q, S50Y, S56D, T60A, G73N, W78V, S79Y, T83R, V89L, N93R)) VHH: EVQLVESGGGVVQPGGSLRLSCAASGPVFNINRMAWYRQAPGKQRELVAYVTPTGDISYADSVKGRFTISRDNSKRVYLQMNSLRPEDTALYYCRALLQPDSYSNTRTYWGQGTLVTVSS | 7.36

Measured pEC50, F010302386 (VHH, also called F0103387G04(L11V, A12V, K33R, R39Q, S50Y, S56D, T60A, D72Q, W78V, S79Y, T83R, V89L, N93R, D99S, N100cI)) VHH: EVQLVESGGGVVQPGGSLRLSCAASGPVFNINRMAWYRQAPGKQRELVAYVTPTGDISYADSVKGRFTISRQGSKRVYLQMNSLRPEDTALYYCRALLQPSSYSITRTYWGQGTLVTVSS : 8.14
